tested system: T1, human GPC3 on cells (human, UniProt P51654 25-554)
T1 construct: whole, on cells; over-expressed on CHOK1 cells or endogenous on HEPG2, Hep3B and Huh-7 hepatocellular carcinoma cells; the cell line is named under assay; also called GPC3-CHOK1 cells; human GPC3 over-expressed CHOK1 cells
test: FACS, GPC3-CHOK1 cells
endpoint: EC50 (µg/mL)

binder="52H5D3B8-8# chimeric mAb (antibody, V domains shown, CDR3 mutant of the 52H5D3B8 chimeric mAb (human IgG1)) VH: QVQLQQSGAELVRPGASVKLSCKALGYTFTDYEMHWVKQTPVHGLEWIGAIHPGSGGTAYNQKFKGKATLTADKFSSTGYMELSSLTSEDSAVYYCTRFYSFAYWGQGTLVTVSA VL: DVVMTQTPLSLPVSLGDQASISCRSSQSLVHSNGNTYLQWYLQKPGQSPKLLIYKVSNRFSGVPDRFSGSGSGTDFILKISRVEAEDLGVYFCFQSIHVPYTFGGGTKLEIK" recorded_result=0.0919
binder="52H5D3B8-7# chimeric mAb (antibody, V domains shown, CDR3 mutant of the 52H5D3B8 chimeric mAb (human IgG1)) VH: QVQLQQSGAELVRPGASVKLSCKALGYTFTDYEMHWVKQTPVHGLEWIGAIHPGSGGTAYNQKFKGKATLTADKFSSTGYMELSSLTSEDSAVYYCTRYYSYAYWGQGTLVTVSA VL: DVVMTQTPLSLPVSLGDQASISCRSSQSLVHSNGNTYLQWYLQKPGQSPKLLIYKVSNRFSGVPDRFSGSGSGTDFILKISRVEAEDLGVYFCSQSTHVPYTFGGGTKLEIK" recorded_result=0.232
binder="52H5D3B8-11# chimeric mAb (antibody, V domains shown, CDR3 mutant of the 52H5D3B8 chimeric mAb (human IgG1)) VH: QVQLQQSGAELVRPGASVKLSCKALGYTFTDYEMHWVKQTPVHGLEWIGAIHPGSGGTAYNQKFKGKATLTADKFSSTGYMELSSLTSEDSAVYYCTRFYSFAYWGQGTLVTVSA VL: DVVMTQTPLSLPVSLGDQASISCRSSQSLVHSNGNTYLQWYLQKPGQSPKLLIYKVSNRFSGVPDRFSGSGSGTDFILKISRVEAEDLGVYFCFQSTHVPYTFGGGTKLEIK" recorded_result=0.104
binder="52H5D3B8-10# chimeric mAb (antibody, V domains shown, CDR3 mutant of the 52H5D3B8 chimeric mAb (human IgG1)) VH: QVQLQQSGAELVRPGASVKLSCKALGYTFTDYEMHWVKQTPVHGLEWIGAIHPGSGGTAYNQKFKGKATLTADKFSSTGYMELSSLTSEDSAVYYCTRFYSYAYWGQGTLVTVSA VL: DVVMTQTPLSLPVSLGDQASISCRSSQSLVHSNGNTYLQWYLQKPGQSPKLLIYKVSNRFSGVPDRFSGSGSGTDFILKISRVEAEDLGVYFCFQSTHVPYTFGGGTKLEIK" recorded_result=0.176
binder="52H5D3B8-1# chimeric mAb (antibody, V domains shown, CDR3 mutant of the 52H5D3B8 chimeric mAb (human IgG1)) VH: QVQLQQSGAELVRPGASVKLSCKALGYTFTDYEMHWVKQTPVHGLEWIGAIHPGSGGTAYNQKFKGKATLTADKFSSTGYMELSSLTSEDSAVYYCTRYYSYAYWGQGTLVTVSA VL: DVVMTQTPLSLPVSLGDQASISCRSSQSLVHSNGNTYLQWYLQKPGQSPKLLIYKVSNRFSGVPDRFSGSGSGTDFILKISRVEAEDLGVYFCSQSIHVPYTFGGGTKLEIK" recorded_result=0.104
binder="52H5D3B8-2# chimeric mAb (antibody, V domains shown, CDR3 mutant of the 52H5D3B8 chimeric mAb (human IgG1)) VH: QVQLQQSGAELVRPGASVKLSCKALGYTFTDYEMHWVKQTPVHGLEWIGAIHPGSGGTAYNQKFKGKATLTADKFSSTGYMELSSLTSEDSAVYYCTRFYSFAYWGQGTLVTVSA VL: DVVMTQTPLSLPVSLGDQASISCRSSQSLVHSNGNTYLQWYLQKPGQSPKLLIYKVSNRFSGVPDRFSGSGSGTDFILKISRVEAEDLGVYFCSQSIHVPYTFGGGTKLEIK" recorded_result=0.149
binder="52H5D3B8-3# chimeric mAb (antibody, V domains shown, CDR3 mutant of the 52H5D3B8 chimeric mAb (human IgG1)) VH: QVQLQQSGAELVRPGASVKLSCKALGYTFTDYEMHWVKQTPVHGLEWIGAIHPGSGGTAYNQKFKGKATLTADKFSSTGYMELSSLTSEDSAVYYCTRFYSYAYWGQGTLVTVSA VL: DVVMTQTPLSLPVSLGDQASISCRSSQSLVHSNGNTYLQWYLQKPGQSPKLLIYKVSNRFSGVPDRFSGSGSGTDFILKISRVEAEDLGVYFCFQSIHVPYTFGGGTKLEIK" recorded_result=0.0869
binder="52H5D3B8-13# chimeric mAb (antibody, V domains shown, CDR3 mutant of the 52H5D3B8 chimeric mAb (human IgG1)) VH: QVQLQQSGAELVRPGASVKLSCKALGYTFTDYEMHWVKQTPVHGLEWIGAIHPGSGGTAYNQKFKGKATLTADKFSSTGYMELSSLTSEDSAVYYCTRYYSFAYWGQGTLVTVSA VL: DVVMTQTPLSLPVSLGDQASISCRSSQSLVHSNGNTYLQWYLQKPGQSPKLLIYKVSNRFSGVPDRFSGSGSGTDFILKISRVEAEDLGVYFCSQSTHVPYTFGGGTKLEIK" recorded_result=1.55
binder="52H5D3B8 chimeric mAb (antibody, V domains shown, also called 52H5D3B8-VH+VL; chimeric 52H5D3B8 mAb) VH: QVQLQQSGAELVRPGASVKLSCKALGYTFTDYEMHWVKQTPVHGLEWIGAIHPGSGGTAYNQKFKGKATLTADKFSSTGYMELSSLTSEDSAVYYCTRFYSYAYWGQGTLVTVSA VL: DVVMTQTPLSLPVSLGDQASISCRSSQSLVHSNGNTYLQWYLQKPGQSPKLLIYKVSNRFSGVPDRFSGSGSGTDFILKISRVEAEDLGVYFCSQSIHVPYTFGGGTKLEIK" recorded_result=0.0705
binder="52H5D3B8-6# chimeric mAb (antibody, V domains shown, CDR3 mutant of the 52H5D3B8 chimeric mAb (human IgG1); also called 52H5D3B8-6#-VH+VL) VH: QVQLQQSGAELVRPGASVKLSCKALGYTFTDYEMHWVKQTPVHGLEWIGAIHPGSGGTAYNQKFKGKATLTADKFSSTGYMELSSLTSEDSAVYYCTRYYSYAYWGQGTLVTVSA VL: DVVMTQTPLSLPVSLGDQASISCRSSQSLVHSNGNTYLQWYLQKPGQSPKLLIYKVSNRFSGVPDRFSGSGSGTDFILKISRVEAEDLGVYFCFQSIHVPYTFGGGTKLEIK" recorded_result=0.0601
